Consider the following binders and their measured IC50, TF-1 proliferation assay (7 pM human GM-CSF) readings.
# target.under.test: T1, human GM-CSFRα (human, UniProt P15509 23-400)
# T1 sequence: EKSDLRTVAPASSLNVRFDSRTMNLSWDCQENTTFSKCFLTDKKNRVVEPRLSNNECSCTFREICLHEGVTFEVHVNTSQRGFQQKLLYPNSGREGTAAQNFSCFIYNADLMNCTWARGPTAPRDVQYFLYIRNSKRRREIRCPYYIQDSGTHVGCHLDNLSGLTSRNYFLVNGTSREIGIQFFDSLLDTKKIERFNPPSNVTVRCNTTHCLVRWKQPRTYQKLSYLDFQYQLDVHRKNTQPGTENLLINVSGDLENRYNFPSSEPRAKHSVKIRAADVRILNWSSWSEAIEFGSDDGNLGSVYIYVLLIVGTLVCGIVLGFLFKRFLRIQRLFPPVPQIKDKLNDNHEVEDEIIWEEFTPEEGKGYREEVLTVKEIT
# procedure.details: cell-based or functional assay
Kindly provide the numeric value in pM only, without the unit symbol.

Worked examples, 5 binders total:
binder	observed.value
Antibody 8 (antibody, V domains shown, also called Antibody 08; Ab8) VH: QVQLVQSGAEVKKPGASVKVSCKISGHSLSELSIHWVRQTPTKGFEWMGGFDPEENEIVYAQRFQGRVTMTEDTSIDTAYLTLSSLRSDDTAVYYCAIVGSFSPPAYRPWGKGTMVTVSS VL: QAVLTQPSSVSGAPGQRVTISCTGSGSNIGAPYDVSWYQQLPGTAPKLLIYHNNKRPSGVPDRFSASKSGTSASLAITGLQADDEADYYCQSYDSSLSGSVFGGGTKVTVL	34.5
Antibody 17 (antibody, V domains shown, also called Ab17) VH: QVQLVQSGAEVKKPGASVKVSCKISGHSLSELSIHWVRQTPTKGFEWMGGFDPEENEIVYAQRFQGRVTMTEDTSIDTAYLTLSSLRSDDTAVYYCSIVGSFSPLTMGLWGKGTMVTVSS VL: QAVLTQPSSVSGAPGQRVTISCTGSGSNIGAPYDVSWYQQLPGTAPKLLIYHNNKRPSGVPDRFSASKSGTSASLAITGLQADDEADYYCATVEDGLSGSVFGGGTKVTVL	14.3
Antibody 16 (antibody, V domains shown, also called Ab16) VH: QVQLVQSGAEVKKPGASVKVSCKISGHSLSELSIHWVRQTPTKGFEWMGGFDPEENEIVYAQRFQGRVTMTEDTSIDTAYLTLSSLRSDDTAVYYCSIVGSFSPLTMGLWGKGTMVTVSS VL: QAVLTQPSSVSGAPGQRVTISCTGSGSNIGAPYDVSWYQQLPGTAPKLLIYHNNKRPSGVPDRFSASKSGTSASLAITGLQAEDEADYYCATSDEILSGSVFGGGTKVTVL	12.8
Antibody 14 (antibody, V domains shown, also called Ab14) VH: QVQLVQSGAEVKKPGASVKVSCKISGHSLSELSIHWVRQTPTKGFEWMGGFDPEENEIVYAQRFQGRVTMTEDTSIDTAYLTLSSLRSDDTAVYYCSILGSVTAWAFDYWGKGTMVTVSS VL: QAVLTQPSSVSGAPGQRVTISCTGSGSNIGAPYDVSWYQQLPGTAPKLLIYHNNKRPSGVPDRFSASKSGTSASLAITGLQADDEADYYCQSYDSEDRMTEFGGGTKVTVL	16.3
Antibody 15 (antibody, V domains shown, also called Ab15) VH: QVQLVQSGAEVKKPGASVKVSCKISGHSLSELSIHWVRQTPTKGFEWMGGFDPEENEIVYAQRFQGRVTMTEDTSIDTAYLTLSSLRSDDTAVYYCSIAGSIPGWAFDYWGKGTMVTVSS VL: QAVLTQPSSVSGAPGQRVTISCTGSGSNIGAPYDVSWYQQLPGTAPKLLIYHNNKRPSGVPDRFSASKSGTSASLAITGLQADDEADYYCQSYDSQLISAAFGGGTKVTVL	164

Q: Bench note: what IC50, TF-1 proliferation assay (7 pM human GM-CSF) did Antibody 9 (antibody, V domains shown) VH: QVQLVQSGAEVKKPGASVKVSCKISGHSLSELSIHWVRQTPTKGFEWMGGFDPEENEIVYAQRFQGRVTMTEDTSIDTAYLTLSSLRSDDTAVYYCAIVGSFSPVTYGLWGQGTMVTVSS VL: QAVLTQPSSVSGAPGQRVTISCTGSGSNIGAPYDVSWYQQLPGTAPKLLIYHNNKRPSGVPDRFSASKSGTSASLAITGLQADDEADYYCQSYDSSLSGSVFGGGTKVTVL show?
Result: 40.8

Q: Data request, read-out IC50, TF-1 proliferation assay (7 pM human GM-CSF), for Antibody 12 (antibody, V domains shown, also called Ab12) VH: QVQLVQSGAEVKKPGASVKVSCKISGHSLSELSIHWVRQTPTKGFEWMGGFDPEENEIVYAQRFQGRVTMTEDTSIDTAYLTLSSLRSDDTAVYYCSIVGSFSGWAFDYWGKGTMVTVSS VL: QAVLTQPSSVSGAPGQRVTISCTGSGSNIGAPYDVSWYQQLPGTAPKLLIYHNNKRPSGVPDRFSASKSGTSASLAITGLQADDEADYYCQSYDSEPTEIRFGGGTKLTVL
Result: 246

Q: Query: IC50, TF-1 proliferation assay (7 pM human GM-CSF); subject: Antibody 11 (antibody, V domains shown) VH: QVQLVQSGAEVKKPEASVKVSCKIPGHSLSELSIHWVRQTPTKGFEWMGGFDPEENEIVYAQRFQGRVTMTEDTSIDTAYLTLSSLRSDDTAVYYCAIVGSFSPITYGLWGKGTMVTVSS VL: QAVLTQPSSVSGVPGQRVTISCTGSGSNIGAPYDVSWYQQLPGTAPKLLIYHNNKRPSGVPDRFSASKSGTSASLAITGLQADDEADYYCQSYDSSLSGSVFGGGTKVTVL
Result: 9

Q: I have this binder here, Antibody 6, non-germlined IgG4 (antibody, V domains shown) VH: QVQLVQSGAEVKKPGASVKVSCKISGHSLSELSIHWVRQTPTKGFEWMGGFDPEENEIVYAQRFQGRVTMTEDTSIDTAYLTLSSLRSDDTAVYYCSIVGSFSPLTLGLWGKGTMVTVSS VL: QAVLTQPSSVSGAPGQRVTISCTGSGSNIGAPYDVSWYQQLPGTAPKLLIYHNNKRPSGVPDRFSASKSGTSASLAITGLQADDEADYYCATVEAGLSGSVFGGGTKLTVL , and I need its recorded IC50, TF-1 proliferation assay (7 pM human GM-CSF).
Result: 0.97

Q: Fill in the blank: the reported IC50, TF-1 proliferation assay (7 pM human GM-CSF) of Antibody 7 (antibody, V domains shown, also called Antibody 07; Ab7) VH: QVQLVQSGAEVKKPGASVKVSCKISGHSLSELSIHWVRQTPTKGFEWMGGFDPEENEIVYAQRFQGRVTMTEDTSIDTAYLTLSSLRSDDTAVYYCAIVGSFSGPVYGLWGKGTMVTVSS VL: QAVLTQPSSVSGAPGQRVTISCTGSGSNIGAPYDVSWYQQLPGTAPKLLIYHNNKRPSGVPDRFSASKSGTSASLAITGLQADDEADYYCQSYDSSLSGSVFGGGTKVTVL is ____.
Result: 93.8

Values from patent US20120141464A1
